target: PARP (Mus musculus, UniProt P11103); construct: endogenous in cells; host or cells: L1210 murine leukaemia cells, permeabilised by hypotonic buffer and cold shock; assay: PARP enzyme inhibition assay ([32P]-NAD+ incorporation into TCA-precipitated poly(ADP-ribose), oligonucleotide-activated, permeabilised L1210 cells); assay type: biochemical, murine (L1210 leukaemia cells); conditions: IC50 value (PARP inhibition), permeabilised L1210 cells, 26° C., 5 minutes
Sequence (P11103 whole entry): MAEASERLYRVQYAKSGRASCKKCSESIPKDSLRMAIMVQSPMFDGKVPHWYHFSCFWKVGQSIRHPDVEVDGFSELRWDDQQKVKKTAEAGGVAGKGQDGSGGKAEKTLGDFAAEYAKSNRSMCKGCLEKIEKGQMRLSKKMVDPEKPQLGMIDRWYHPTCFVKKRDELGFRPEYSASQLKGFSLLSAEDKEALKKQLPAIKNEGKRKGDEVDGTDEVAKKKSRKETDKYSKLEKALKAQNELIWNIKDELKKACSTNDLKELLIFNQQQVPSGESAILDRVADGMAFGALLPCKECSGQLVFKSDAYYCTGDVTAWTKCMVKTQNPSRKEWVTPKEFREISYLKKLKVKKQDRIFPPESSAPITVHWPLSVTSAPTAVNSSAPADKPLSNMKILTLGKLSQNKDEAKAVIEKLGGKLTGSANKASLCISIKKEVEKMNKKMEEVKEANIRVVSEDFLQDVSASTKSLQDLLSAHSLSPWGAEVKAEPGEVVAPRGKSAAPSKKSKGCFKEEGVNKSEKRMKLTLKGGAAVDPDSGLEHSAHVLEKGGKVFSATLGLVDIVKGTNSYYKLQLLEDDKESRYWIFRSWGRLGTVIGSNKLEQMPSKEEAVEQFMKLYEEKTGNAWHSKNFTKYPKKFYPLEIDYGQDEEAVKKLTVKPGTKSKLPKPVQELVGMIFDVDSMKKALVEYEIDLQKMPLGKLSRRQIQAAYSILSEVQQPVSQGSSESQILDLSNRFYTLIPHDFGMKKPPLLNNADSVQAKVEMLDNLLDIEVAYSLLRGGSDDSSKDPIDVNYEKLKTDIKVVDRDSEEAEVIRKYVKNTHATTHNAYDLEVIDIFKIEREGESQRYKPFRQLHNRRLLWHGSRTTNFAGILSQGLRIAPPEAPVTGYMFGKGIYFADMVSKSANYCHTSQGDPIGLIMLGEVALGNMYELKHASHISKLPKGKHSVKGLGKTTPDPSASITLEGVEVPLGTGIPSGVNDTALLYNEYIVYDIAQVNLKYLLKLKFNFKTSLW
quantityName: IC50 (nM)

smiles | quantitativeReadout
NC(=O)c1cccc2nc(-c3ccc(O)cc3)[nH]c12 | 77

---

molecular target: PARP (Mus musculus); construct: endogenous in cells; host or cells: L1210 murine leukaemia cells, permeabilised by hypotonic buffer and cold shock; experiment: PARP enzyme inhibition assay ([32P]-NAD+ incorporation into TCA-precipitated poly(ADP-ribose), oligonucleotide-activated, permeabilised L1210 cells); format: biochemical, murine (L1210 leukaemia cells); details: permeabilised L1210 cells, 26° C., 5 minutes; read-out: IC50 value (PARP inhibition)
Below is a list of entries, each paired with its recorded IC50 value.

molecule | unitSpec | IC50
COc1cccc(-c2nc3c(C(N)=O)cccc3[nH]2)c1 [NU1098] | nM | 130
NC(=O)c1cccc2nc(-c3ccc(N)cc3)[nH]c12 [NU1103] | nM | 91
Cc1nc2c(C(N)=O)cccc2[nH]1 [NU1064, 2-methylbenzimidazole-4-carboxamide] | nM | 1090
COc1ccc(-c2nc3c(C(N)=O)cccc3n2C(=O)c2ccccc2)cc1 [NU1101] | nM | 270
NC(=O)c1ccccc1 [benzamide, reference compound] | nM | 12400
NC(=O)c1cccc(O)c1 [3-hydroxybenzamide, reference compound] | nM | 8000
NC(=O)c1cccc2[nH]c(-c3ccc([N+](=O)[O-])cc3)nc12 [NU1091] | nM | 22
N#Cc1ccc(-c2nc3c(C(N)=O)cccc3[nH]2)cc1 [NU1092] | nM | 33
COc1ccc(-c2nc3c(C(N)=O)cccc3[nH]2)cc1 [NU1076] | nM | 59
NC(=O)c1cccc2[nH]c(-c3cccc(C(F)(F)F)c3)nc12 [NU1093] | nM | 76
NC(=O)c1cccc2[nH]c(C(F)(F)F)nc12 [NU1086] | nM | 1600

This collection of values is drawn from patent US6100283A.
